target: CLEC-2 (C-type lectin-like receptor 2) (Homo sapiens); construct: recombinant CLEC-2; assay: SPR (Biacore T200, CLEC-2 amine-coupled to CM5 chip, equilibrium fit)
Sequence (Q9P126 whole entry): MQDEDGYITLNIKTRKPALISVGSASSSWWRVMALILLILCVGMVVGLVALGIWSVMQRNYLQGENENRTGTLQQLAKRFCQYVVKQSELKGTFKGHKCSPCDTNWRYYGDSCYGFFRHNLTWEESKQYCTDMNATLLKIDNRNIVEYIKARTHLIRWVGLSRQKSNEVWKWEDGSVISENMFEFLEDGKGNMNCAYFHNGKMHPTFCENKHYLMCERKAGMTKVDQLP
property-label: Kd

>>> result("O=C(NCCNC(=O)c1cc([N+](=O)[O-])ccc1O)c1ccccc1 [2CP]")
"33.2 µM"
